# protocol.description: Stability of the compound in simulated gastric/intestinal fluid assessed as compound remaining at 10 mM after 6 hrs by UV/Vis spectroscopic analysis in presence of porcine pepsin and pancreatin relative to control
# Assay type: physicochemical
# recorded.conditions: pig; read-out: Stability
Mark each entry 1.0 if its remaining at 6 h, 10000 µM sits below 80%, and 0.0 for all others.

[
  {
    "compound": "O=C1C(Cl)C(c2ccc(Cl)cc2)N1c1ccccc1 (configuration not stated)",
    "label.value": 0.0
  },
  {
    "compound": "O=C1C(Cl)C(c2ccc(Cl)cc2)N1c1ccc(I)cc1 (configuration not stated)",
    "label.value": 1.0
  },
  {
    "compound": "Oc1ccc(/C=C\\c2cc(O)cc(O)c2)cc1 [CIS-RESVERATROL]",
    "label.value": 1.0
  }
]

Then there is this compound:
Input O=C1C(Cl)C(c2ccc(Br)cc2)N1c1ccc(Br)cc1 (configuration not stated) ; condition: remaining at 6 h, 10000 µM strictly below 80%. Does it hold?
0.0

###

# protocol.description: Stability of the compound in simulated gastric/intestinal fluid assessed as compound remaining at 10 mM after 6 hrs by UV/Vis spectroscopic analysis in presence of porcine pepsin and pancreatin relative to control
# Assay type: physicochemical
# recorded.conditions: pig; read-out: Stability
experimental.readout: remaining at 6 h, 10000 µM (%)
Give bare numbers, in %.

Look at each molecule and report its remaining at 6 h, 10000 µM.
1. Cc1ccc(C2C(Cl)C(=O)N2c2ccc(C)cc2)cc1 (stereo not drawn)
2. O=C1C(Cl)C(c2ccccc2)N1c1ccccc1 (stereo not drawn)
3. O=C1C(Cl)C(c2ccccc2)N1c1ccc(Cl)cc1 (stereo not drawn)

1: 79; 2: 78; 3: 80

The reported numbers originate from ChEMBL document CHEMBL2440023.
